Ki for 5-hydroxytryptamine receptor 7 (Homo sapiens), merged from several publications.
property: Ki (nM)

• CN(C)C[C@@H]1CC2c3ccccc3Oc3ccc(Cl)cc3[C@H]2O1 (stereo not given in full) = 92
• COc1ccccc1N1CCN(CCCCCC(=O)NCc2ccccc2-c2ccccc2)CC1 = 43.7
• CN1CCN(c2nc(N)nc(CSc3ccccc3Cl)n2)CC1 = 614
• COc1cc2ncnc(N3CCC(CN4CCN(c5ccccn5)CC4)C3)c2cc1OC (stereo not given) = 282
• CC(C)c1ccccc1OCCN1CC(NS(=O)(=O)c2ccc(F)cc2)C1 = 7
• CCN(CCCCCN1CCC2CCCCC2C1)S(=O)(=O)c1cccc2cccnc12 (stereo not given) = 33
• O=S(=O)(NCC1CCN(CCOc2ccccc2-c2ccccc2)CC1)c1ccc(Cl)s1 = 20
